test: physchem; settings: 10% ethanol in water, 20 °C, aqueous with cosolvent or surfactant or cyclodextrin, thermodynamic from solid
reported_property: solubility at 24 h (µg/mL)
Please respond with the number in µg/mL and leave the unit unwritten.

Recorded solubility at 24 h (compound NC(=O)c1cccc2cn(-c3ccc([C@@H]4CCCNC4)cc3)nc12 [Niraparib] ): 56.2

* * *

assay: physchem; details: 25% ethanol in water, 20 °C, aqueous with cosolvent or surfactant or cyclodextrin, thermodynamic from solid
reported_property: solubility at 24 h (µg/mL)
Please respond with the number in µg/mL and leave the unit unwritten.

Recorded solubility at 24 h (compound `NC(=O)c1cccc2cn(-c3ccc([C@@H]4CCCNC4)cc3)nc12` ): 332
